Data credit: PubChem BioAssay (NCATS)

I'd be grateful if you could share measured Potency for these entries.
test.description: qHTS profiling for inhibitors of Plasmodium falciparum proliferation (AID 504749); further: potency means the concentration at half of the fitted maximal effect; nearly all actives have a fitted effect of over 60% in size
condition.notes: P. falciparum in erythrocytes, SYBR Green DNA, 72 h; parasite line B
Inconclusive results are not listed. The source made the active and inactive calls. The call rests on the fitted dose curve; in most records, active means well fitted inhibition curve with a large enough effect; inconclusive means small, poorly fitted or top-dose-only effect; inactive means flat fitted curve, though single readings scatter.

The examples below pair each entry with its known result.
compound	Potency
CO[C@H]1OC2O[C@@]3(C)CC[C@H]4[C@H](C)CC[C@@H]([C@H]1C)[C@@]24OO3 (some centres undefined)	15.8 nM (active)
CN[C@H](C)CCC=C(C)C	141 nM (active)
CC[C@H](C)[C@H]1O[C@]2(CC[C@@H]1C)C[C@@H]1C[C@@H](C/C=C(\C)[C@H](O[C@@H]3C[C@H](OC)[C@H](O[C@@H]4C[C@H](OC)[C@@H](O)[C@H](C)O4)[C@H](C)O3)[C@@H](C)/C=C/C=C3\CO[C@@H]4[C@H](O)C(C)=C[C@@H](C(=O)O1)[C@]34O)O2	794 nM (active)
C=CC1CN2CCC1CC2[C@@H](O)c1ccnc2ccc(OC)cc12 (some centres undefined)	56.2 nM (active)
C[C@H]1[C@@H](OC(=O)CCC(=O)O)OC2OC3(C)CC[C@H]4[C@H](C)CC[C@@H]1[C@@]24OO3 (some centres undefined)	3.5 nM (active)

Give measured Potency for every item shown.
1. C[C@]12C=CC(=O)N[C@@H]1CC[C@@H]1C2CC[C@]2(C)C(C(=O)Nc3cc(C(F)(F)F)ccc3C(F)(F)F)CC[C@@H]12 (some centres undefined)
2. C[n+]1c2cc(N)ccc2cc2ccc(N)cc21
3. C[C@]12CC[C@@H]3c4ccc(O)cc4C[C@@H](CCCCCCCCCS(=O)CCCC(F)(F)C(F)(F)F)C3[C@@H]1CC[C@@H]2O (some centres undefined)
4. COc1cc2c(cc1O)CCN[C@@]21CS[C@H]2c3c(OC(C)=O)c(C)c4c(c3C(COC1=O)N1C2C2c3c(cc(C)c(OC)c3O)CC([C@@H]1O)N2C)OCO4 (some centres undefined)
5. CCC(=O)O[C@]1(C(=O)CCl)[C@@H](C)CC2C3C[C@H](F)C4=CC(=O)C=CC4(C)[C@@]3(F)C(O)CC21C (some centres undefined)
6. C=C[C@@]1(C)C[C@H](OC(=O)CSC(C)(C)CNC(=O)[C@@H](N)C(C)C)[C@@]2(C)C(C)CC[C@@]3(CCC(=O)[C@@H]32)[C@H](C)[C@H]1O (some centres undefined)
7. CCCCC(=O)OCC(=O)[C@]1(O)Cc2c(O)c3c(c(O)c2[C@H](OC2CC(NC(=O)C(F)(F)F)C(O)C(C)O2)C1)C(=O)c1c(OC)cccc1C3=O (some centres undefined)

Response given:
["11200 nM (active)", "1000 nM (active)", "10000 nM (active)", "0.9 nM (active)", "11200 nM (active)", "1410 nM (active)", "2510 nM (active)"]
